B1: FAM164C (parent)
chain: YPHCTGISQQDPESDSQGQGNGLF

variants of: B1; experiment: protein stability index of a GFP-peptide fusion (GPS, HEK-293T) (PSI 1-6); higher = more stable; conditions: c terminus: a fixed tail appended;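 also: lentivirally expressed fusions sorted by FACS into six bins by GFP to DsRed ratio, PSI derived from sequencing read proportions per bin multiplied by bin number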
Response key: satisfied means protein stability index >= 4; not satisfied means protein stability index < 4.

variant label: I7C
cat: not satisfied
--
variant label: Y1S
cat: satisfied
--
variant label: Q17L
cat: not satisfied
--
variant label: G22W
cat: not satisfied
--
variant label: Y1K
cat: satisfied
--
variant label: Q10W
cat: not satisfied
--
variant label: H3A
cat: not satisfied
--
variant label: P2F
cat: not satisfied
--
variant label: D11G
cat: not satisfied
--
variant label: I7D
cat: satisfied
--
variant label: T5W
cat: not satisfied
